# PARTICULARS: buffer; pH 7.4; 200.0 µM
Tick label 1 if solubility kinetic is 40 µg/mL or greater. Tick label 0 if solubility kinetic is less than 40 µg/mL.

>  <COMPOUND>
O=C(CCCc1nc(-c2ccccc2)no1)NC1CCCC1

>  <LABEL>
label 1

$$$$
>  <COMPOUND>
COC(=O)c1c(C)oc(C)c1S(=O)(=O)N1CCCCC1

>  <LABEL>
label 0

$$$$
>  <COMPOUND>
NC(=O)c1ccccc1NC(=O)COc1ccc2c(c1)OCO2

>  <LABEL>
label 0

$$$$
>  <COMPOUND>
COC(=O)CN1C(=O)COc2ccc(S(=O)(=O)N3CCCCCC3)cc21

>  <LABEL>
label 1

$$$$
>  <COMPOUND>
Nc1nc(Cl)cc(Oc2ccccc2F)n1

>  <LABEL>
label 0

$$$$
>  <COMPOUND>
COc1ccc(CN(CCC(c2ccco2)C(C)C)C(C)=O)cc1OC (configuration not stated)

>  <LABEL>
label 1

$$$$
>  <COMPOUND>
O=C(COC(=O)CCSc1ccccc1)Nc1ccccc1

>  <LABEL>
label 1

$$$$
>  <COMPOUND>
Cc1nc(/N=C(\N)NC(=O)NC2CCCCC2)nc2ccccc12

>  <LABEL>
label 0

$$$$
>  <COMPOUND>
O=C(CCc1ccccc1O)NC1CCCc2ccccc21 (configuration not stated)

>  <LABEL>
label 1

$$$$

====

# PARTICULARS: buffer; pH 7.4; 200.0 µM
Listing of entries alongside the reported solubility kinetic.

>  <SMILES REPRESENTATION>
Cc1ccc(C)c(OCC(=O)Nc2ccccc2C(=O)NC2CC2)c1

>  <UNIT>
µg/mL

>  <solubility kinetic>
0.9

$$$$
>  <SMILES REPRESENTATION>
O=C(c1ccccc1)C1CCN(C(=O)Nc2ccccc2)CC1

>  <UNIT>
µg/mL

>  <solubility kinetic>
41.2

$$$$
>  <SMILES REPRESENTATION>
CCOC(=O)c1cnc2c(OC)cccc2c1Oc1ccccc1

>  <UNIT>
µg/mL

>  <solubility kinetic>
7.2

$$$$
>  <SMILES REPRESENTATION>
O=C(COC(=O)C1CC1)NCc1ccc(Cl)cc1Cl

>  <UNIT>
µg/mL

>  <solubility kinetic>
41.9

$$$$
>  <SMILES REPRESENTATION>
O=S(=O)(NCCC1=CCCCC1)c1ccc(F)cc1

>  <UNIT>
µg/mL

>  <solubility kinetic>
16.9

$$$$
>  <SMILES REPRESENTATION>
O=C(COC(=O)c1cc(Cl)ccc1O)Nc1cc(C(F)(F)F)ccc1N1CCOCC1

>  <UNIT>
µg/mL

>  <solubility kinetic>
3.5

$$$$

====

Reported log10 solubility kinetic values follow for various molecules
# PARTICULARS: buffer; pH 7.4; 200.0 µM
METRIC NAME: log10 solubility kinetic (log10 of the value in µg/mL)

>  <MOLECULE>
O=C(Nc1nccs1)c1ccc(Cl)c([N+](=O)[O-])c1

>  <MEASURED NUMBER>
0.84

$$$$
>  <MOLECULE>
O=S(=O)(NCCn1cccc1)c1ccc2ccccc2c1

>  <MEASURED NUMBER>
0.32

$$$$
>  <MOLECULE>
O=S(=O)(c1ccc(Br)cc1Cl)N1CCCN(c2ccc(C(F)(F)F)cn2)CC1

>  <MEASURED NUMBER>
0.48

$$$$
>  <MOLECULE>
CCOC(=O)NC(=S)Nc1ccc(OC)cc1

>  <MEASURED NUMBER>
1.41

$$$$
>  <MOLECULE>
COc1ccccc1NC(=S)NC(=O)Cc1ccccc1

>  <MEASURED NUMBER>
-0.30

$$$$
>  <MOLECULE>
CC(C)Cn1c(N)c(C(=O)COC(=O)c2ccc(Br)cc2)c(=O)n(C)c1=O

>  <MEASURED NUMBER>
0.94

$$$$
>  <MOLECULE>
Cc1cccc(C(=O)OCC(=O)NC23CC4CC(CC(C4)C2)C3)c1O

>  <MEASURED NUMBER>
0.95

$$$$
>  <MOLECULE>
Cc1ccc(C(=O)CCC(=O)NCc2ccc(Cl)cc2)cc1

>  <MEASURED NUMBER>
0.99

$$$$
>  <MOLECULE>
CC(Oc1ccccc1)C(=O)N1CCN=C1SCc1ccccc1 (centres undefined)

>  <MEASURED NUMBER>
1.30

$$$$
>  <MOLECULE>
CC1(C)CC(=O)C=C(NCC(O)c2ccccc2)C1 (centres undefined)

>  <MEASURED NUMBER>
1.56

$$$$
>  <MOLECULE>
O=C(CN1C(=O)c2ccccc2C1=O)Nc1nccs1

>  <MEASURED NUMBER>
1.24

$$$$

The origin of these recorded values is PubChem BioAssay AID1996.
